Biological target: UniProt P08684
Sequence (P08684 whole entry): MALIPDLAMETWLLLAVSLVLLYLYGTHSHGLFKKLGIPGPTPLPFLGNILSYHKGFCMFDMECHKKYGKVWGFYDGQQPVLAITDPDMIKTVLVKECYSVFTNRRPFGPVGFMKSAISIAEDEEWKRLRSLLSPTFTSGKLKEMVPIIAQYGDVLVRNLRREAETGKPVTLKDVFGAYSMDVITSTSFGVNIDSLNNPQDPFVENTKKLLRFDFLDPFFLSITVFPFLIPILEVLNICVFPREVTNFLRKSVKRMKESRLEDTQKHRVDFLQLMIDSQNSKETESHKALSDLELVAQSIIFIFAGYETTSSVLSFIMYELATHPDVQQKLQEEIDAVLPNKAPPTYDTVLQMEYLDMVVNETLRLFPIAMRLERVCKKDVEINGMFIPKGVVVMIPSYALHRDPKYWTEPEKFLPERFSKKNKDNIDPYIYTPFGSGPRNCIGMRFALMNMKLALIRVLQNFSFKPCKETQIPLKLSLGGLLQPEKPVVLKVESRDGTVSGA
Experiment: CYP3A4 fluorometric microtiter plate inhibition assay
recorded endpoint: IC50

Request: Observed IC50 on UniProt P08684 for O=C(/C=C/c1ccc(O)c(O)c1)O[C@H](C(=O)O)[C@](O)(Cc1ccc(O)c(O)c1)C(=O)O [Fukinolic acid, fukinolic acid] , please.
Response: 7.2 µM

Request: Observed IC50 on UniProt P08684 for COc1ccc(/C=C/C(=O)O[C@H](C(=O)O)[C@](O)(Cc2ccc(O)c(O)c2)C(=O)O)cc1O [CAB, Cimicifugic acid B] , please.
Response: 9.8 µM

Request: Observed IC50 on UniProt P08684 for COc1cc(/C=C/C(=O)O[C@H](C(=O)O)[C@](O)(Cc2ccc(O)c(O)c2)C(=O)O)ccc1O [CAA, Cimicifugic acid A] , please.
Response: 9.7 µM

Request: Observed IC50 on UniProt P08684 for CC(=O)O[C@@H]1C[C@@]23C[C@@]24CC[C@H](O[C@@H]2OC[C@@H](O)[C@H](O)[C@H]2O)C(C)(C)[C@@H]4CC[C@H]3[C@]2(C)C[C@@H]3O[C@]4(C[C@@H](C)[C@@H]3[C@@]12C)O[C@H](O)[C@@]1(C)O[C@@H]41 [Actein, actein] , please.
Response: 35.2 µM

Data origin: paper PMC3761975
